These entries and their values trace back to paper PMC9482650.

# targetEntity: T1, LIN7A, O14910
# T1 sequence (O14910 103-200, limits assumed, looked up): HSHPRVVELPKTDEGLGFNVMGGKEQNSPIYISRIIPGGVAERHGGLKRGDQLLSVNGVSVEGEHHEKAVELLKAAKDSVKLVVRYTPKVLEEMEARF
# assayNotes: holdup assay
# Design: key: below the threshold = too weak to quantify, mostly under pKd 3.1 to 4
# measurementContext: plain residues with an end cap or a label only (N-terminal biotin on a linker: ado-ado)
propertyMeasured: pKd

Reference set, count: 4
{"binder": "EDLEDEWEVI [TECPR2, O15040]", "pKd": "below the threshold"}
{"binder": "SFISKKEWYV [NECTIN1, Q15223]", "pKd": "below the threshold"}
{"binder": "LPAVCYDIDI [PTTG2, Q9NZH5]", "pKd": "below the threshold"}
{"binder": "VLYPREGTEV [FOXI1, Q12951]", "pKd": "below the threshold"}

Qu. Give the reported value of pKd for this record: KKMLQRRTLL [OR8G1, Q15617]
Ans. below the threshold
